Give measured viability, T/C for each item. Keep answers brief.
- System: PDC 899932-113-R3-J6 complex spheroid viability
- Method Notes: Anticancer human tumor 899932-113-R3-J6-PDC patient-derived melanoma cell line growth inhibition [RAS]
- Cond: second compound 0.00316 µM; first compound 10 µM; active compounds read low
Report as a plain number; the unit % is understood.

Q: Consider the compound Cc1nc(N2CCC3(CC2)COC(C)C3N)c(CO)nc1Sc1ccnc(N)c1Cl (stereo not given) + C=CC(=O)N1CCN(c2nc(OCC3CCCN3C)nc3c(F)c(-c4nc(N)cc(C)c4C(F)(F)F)c(Cl)cc23)C(C)C1 and give its measured viability, T/C.
Result: 127

Q: Quick one: CC(Nc1ccc2c(c1)OCCn1cc(N3C(=O)OCC3C(F)F)nc1-2)C(N)=O (stereo not given) + C=CC(=O)N1CCN(c2nc(OCC3CCCN3C)nc3c(F)c(-c4nc(N)cc(C)c4C(F)(F)F)c(Cl)cc23)C(C)C1
Result: 36.7

Q: Same read-out for CCC(CC)c1cc(NC2CCC(N)C2)n2nccc2n1 (stereo not given) + C=CC(=O)N1CCN(c2nc(OCC3CCCN3C)nc3c(F)c(-c4nc(N)cc(C)c4C(F)(F)F)c(Cl)cc23)C(C)C1 ?
Result: 0.24

Q: Similarly, CC(=O)OC12COC1CC(O)C1(C)C(=O)C(O)C3=C(C)C(OC(=O)C(O)C(NC(=O)OC(C)(C)C)c4ccccc4)CC(O)(C(OC(=O)c4ccccc4)C21)C3(C)C (stereo not given) + C=CC(=O)N1CCN(c2nc(OCC3CCCN3C)nc3c(F)c(-c4nc(N)cc(C)c4C(F)(F)F)c(Cl)cc23)C(C)C1 ?
Result: 82.1

Q: Likewise for CC1(O)CCCC1n1c(=O)c(C(F)F)cc2cnc(NC3CCN(S(C)(=O)=O)CC3)nc21 (stereo not given) + C=CC(=O)N1CCN(c2nc(OCC3CCCN3C)nc3c(F)c(-c4nc(N)cc(C)c4C(F)(F)F)c(Cl)cc23)C(C)C1 ?
Result: 21.4

====

- Tested on: PDC 899932-113-R3-J6 complex spheroid viability
- Method Notes: Anticancer human tumor 899932-113-R3-J6-PDC cell line growth inhibition [RAS];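 also: spheroids exposed to agents for seven days before readout; 100% = DMSO vehicle control wells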
- Cond: compound 0.00316 µM; active compounds read low
Attribute Measured: viability, T/C

Q: What viability, T/C value was documented for this molecule, CCN1CCN(Cc2ccc(Nc3ncc(F)c(-c4cc(F)c5nc(C)n(C(C)C)c5c4)n3)nc2)CC1 ?
Result: 104% [middle of 4 runs]

Q: Record: O=C(c1ccc(F)c(F)c1Nc1ccc(I)cc1F)N1CC(O)([C@@H]2CCCCN2)C1
Result: 74% [middle of 4 runs]

Q: Then C=CC(=O)N1CCN(c2nc(OCC3CCCN3C)nc3c(F)c(-c4nc(N)cc(C)c4C(F)(F)F)c(Cl)cc23)C(C)C1 (stereo not given) ?
Result: 109% [middle of 12 runs]

Q: What do you get for C=CC(=O)Nc1cc(Nc2nccc(-c3cn(C)c4ccccc34)n2)c(OC)cc1N(C)CCN(C)C ?
Result: 109% [middle of 4 runs]

Q: What do you get for CC(C)n1nc(-c2ccc3oc(N)nc3c2)c2c(N)ncnc21 ?
Result: 116% [middle of 4 runs]

====

Answer each item with its documented viability, T/C.
- Tested on: PDC 899932-113-R3-J6 complex spheroid viability
- Method Notes: Anticancer human tumor 899932-113-R3-J6-PDC cell line growth inhibition [RAS];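 also: spheroids exposed to agents for seven days before readout; 100% = DMSO vehicle control wells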
- Cond: second compound 0.0949 µM; first compound 0.01 µM; active compounds read low

Q: Given the entry O=C(c1ccc(F)c(F)c1Nc1ccc(I)cc1F)N1CC(O)([C@@H]2CCCCN2)C1 + CCn1c(-c2cc(N3CCN(C)CC3)cnc2C(C)OC)c2c3cc(ccc31)-c1csc(n1)CC(NC(=O)C1CC1C)C(=O)N1CCCC(N1)C(=O)OCC(C)(C)C2 , report its measured viability, T/C.
Result: 1.48%

Q: Record: CC(C)n1nc(-c2ccc3oc(N)nc3c2)c2c(N)ncnc21 + CCn1c(-c2cc(N3CCN(C)CC3)cnc2C(C)OC)c2c3cc(ccc31)-c1csc(n1)CC(NC(=O)C1CC1C)C(=O)N1CCCC(N1)C(=O)OCC(C)(C)C2
Result: 1.41%

Q: What would you report for Nc1ccn(C2OC(CO)C(O)C2(F)F)c(=O)n1 (configuration not stated) + CCn1c(-c2cc(N3CCN(C)CC3)cnc2C(C)OC)c2c3cc(ccc31)-c1csc(n1)CC(NC(=O)C1CC1C)C(=O)N1CCCC(N1)C(=O)OCC(C)(C)C2 ?
Result: 1.69%

Q: Consider next the compound C=CC(=O)N1CCN(c2nc(OCC3CCCN3C)nc3c(F)c(-c4nc(N)cc(C)c4C(F)(F)F)c(Cl)cc23)C(C)C1 (configuration not stated) + CCn1c(-c2cc(N3CCN(C)CC3)cnc2C(C)OC)c2c3cc(ccc31)-c1csc(n1)CC(NC(=O)C1CC1C)C(=O)N1CCCC(N1)C(=O)OCC(C)(C)C2 in the same way.
Result: 2.76%

Q: One more compound: C=CC(=O)N1CCN(c2nc(OCC3CCCN3C)nc3c(F)c(-c4nc(N)cc(C)c4C(F)(F)F)c(Cl)cc23)C(C)C1 (configuration not stated) + CCn1c(-c2cccnc2C(C)OC)c2c3cc(ccc31)N1CCOC(CC(NC(=O)C(C(C)C)N(C)C(=O)C3(F)CCN(C(=O)C#CC(C)(C)N(C)C)CC3)C(=O)N3CCCC(N3)C(=O)OCC(C)(C)C2)C1
Result: 102%

Q: Now the same for C=CC(=O)Nc1cc(Nc2nccc(-c3cn(C)c4ccccc34)n2)c(OC)cc1N(C)CCN(C)C + CCn1c(-c2cc(N3CCN(C)CC3)cnc2C(C)OC)c2c3cc(ccc31)-c1csc(n1)CC(NC(=O)C1CC1C)C(=O)N1CCCC(N1)C(=O)OCC(C)(C)C2
Result: 2.18%

Q: Continue with O=C(c1ccc(F)c(F)c1Nc1ccc(I)cc1F)N1CC(O)([C@@H]2CCCCN2)C1 + CCn1c(-c2cccnc2C(C)OC)c2c3cc(ccc31)N1CCOC(CC(NC(=O)C(C(C)C)N(C)C(=O)C3(F)CCN(C(=O)C#CC(C)(C)N(C)C)CC3)C(=O)N3CCCC(N3)C(=O)OCC(C)(C)C2)C1
Result: 38.8%

Q: Also CCN1CCN(Cc2ccc(Nc3ncc(F)c(-c4cc(F)c5nc(C)n(C(C)C)c5c4)n3)nc2)CC1 + CCn1c(-c2cc(N3CCN(C)CC3)cnc2C(C)OC)c2c3cc(ccc31)-c1csc(n1)CC(NC(=O)C1CC1C)C(=O)N1CCCC(N1)C(=O)OCC(C)(C)C2 ?
Result: 2.1%

Q: Subsequent entry: CC(C)n1nc(-c2ccc3oc(N)nc3c2)c2c(N)ncnc21 + CCn1c(-c2cccnc2C(C)OC)c2c3cc(ccc31)N1CCOC(CC(NC(=O)C(C(C)C)N(C)C(=O)C3(F)CCN(C(=O)C#CC(C)(C)N(C)C)CC3)C(=O)N3CCCC(N3)C(=O)OCC(C)(C)C2)C1
Result: 76.7%

Q: Now the compound C=CC(=O)Nc1cc(Nc2nccc(-c3cn(C)c4ccccc34)n2)c(OC)cc1N(C)CCN(C)C + CCn1c(-c2cccnc2C(C)OC)c2c3cc(ccc31)N1CCOC(CC(NC(=O)C(C(C)C)N(C)C(=O)C3(F)CCN(C(=O)C#CC(C)(C)N(C)C)CC3)C(=O)N3CCCC(N3)C(=O)OCC(C)(C)C2)C1
Result: 99.1%

Q: Subsequent entry: Nc1ccn(C2OC(CO)C(O)C2(F)F)c(=O)n1 (configuration not stated) + CCn1c(-c2cccnc2C(C)OC)c2c3cc(ccc31)N1CCOC(CC(NC(=O)C(C(C)C)N(C)C(=O)C3(F)CCN(C(=O)C#CC(C)(C)N(C)C)CC3)C(=O)N3CCCC(N3)C(=O)OCC(C)(C)C2)C1
Result: 73.4%

Q: Repeat with CCN1CCN(Cc2ccc(Nc3ncc(F)c(-c4cc(F)c5nc(C)n(C(C)C)c5c4)n3)nc2)CC1 + CCn1c(-c2cccnc2C(C)OC)c2c3cc(ccc31)N1CCOC(CC(NC(=O)C(C(C)C)N(C)C(=O)C3(F)CCN(C(=O)C#CC(C)(C)N(C)C)CC3)C(=O)N3CCCC(N3)C(=O)OCC(C)(C)C2)C1
Result: 90.6%

====

- Tested on: PDC 899932-113-R3-J6 complex spheroid viability
- Method Notes: Anticancer human tumor 899932-113-R3-J6-PDC cell line growth inhibition [RAS]; active = viability on the fitted dose curve at most 10% of control; inactive = the rest;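 also: spheroids exposed to agents for seven days before readout; 100% = DMSO vehicle control wells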
- Cond: second compound 1 µM; first compound 0.0316 µM
Hi! Could you answer with just one of these? active, inactive

Q: Fill in: this test's call for CCC(CC)c1cc(NC2CCC(N)C2)n2nccc2n1 (centres undefined) + C#Cc1c(F)ccc2cc(O)cc(-c3ncc4c(N5CC6CCC(C5)N6)nc(OCC56CCCN5CC(F)C6)nc4c3F)c12 is ___
Result: inactive

Q: Now consider Cc1nc(N2CCC3(CC2)COC(C)C3N)c(CO)nc1Sc1ccnc(N)c1Cl (centres undefined) + C#Cc1c(F)ccc2cc(O)cc(-c3ncc4c(N5CC6CCC(C5)N6)nc(OCC56CCCN5CC(F)C6)nc4c3F)c12 .
Result: inactive

Q: Now consider NC1c2ccccc2OC12CCN(c1cnc3c(N4CCCc5ncccc54)n[nH]c3n1)CC2 (centres undefined) + C#Cc1c(F)ccc2cc(O)cc(-c3ncc4c(N5CC6CCC(C5)N6)nc(OCC56CCCN5CC(F)C6)nc4c3F)c12 and answer again.
Result: inactive

Q: Query CC(=O)OC12COC1CC(O)C1(C)C(=O)C(O)C3=C(C)C(OC(=O)C(O)C(NC(=O)OC(C)(C)C)c4ccccc4)CC(O)(C(OC(=O)c4ccccc4)C21)C3(C)C (centres undefined) + C=CC(=O)N1CCN(c2nc(OCC3CCCN3C)nc3c(F)c(-c4nc(N)cc(C)c4C(F)(F)F)c(Cl)cc23)C(C)C1 next
Result: inactive

Q: Another molecule to check: CC(C)NCC(C(=O)N1CCN(c2ncnc3c2C(C)CC3O)CC1)c1ccc(Cl)cc1 (centres undefined) + C=CC(=O)N1CCN(c2nc(OCC3CCCN3C)nc3c(F)c(-c4nc(N)cc(C)c4C(F)(F)F)c(Cl)cc23)C(C)C1
Result: inactive

Q: Input C=CC(=O)Nc1cc(Nc2nccc(-c3cn(C)c4ccccc34)n2)c(OC)cc1N(C)CCN(C)C + C#Cc1c(F)ccc2cc(O)cc(-c3ncc4c(N5CC6CCC(C5)N6)nc(OCC56CCCN5CC(F)C6)nc4c3F)c12
Result: inactive

Q: Now the molecule CC1(O)CCCC1n1c(=O)c(C(F)F)cc2cnc(NC3CCN(S(C)(=O)=O)CC3)nc21 (centres undefined) + C#Cc1c(F)ccc2cc(O)cc(-c3ncc4c(N5CC6CCC(C5)N6)nc(OCC56CCCN5CC(F)C6)nc4c3F)c12
Result: inactive

Q: Can you handle C=CC(=O)Nc1cc(Nc2nccc(-c3cn(C)c4ccccc34)n2)c(OC)cc1N(C)CCN(C)C + C=CC(=O)N1CCN(c2nc(OCC3CCCN3C)nc3c(F)c(-c4nc(N)cc(C)c4C(F)(F)F)c(Cl)cc23)C(C)C1 next?
Result: inactive

Q: Now try CCC(CC)c1cc(NC2CCC(N)C2)n2nccc2n1 (centres undefined) + C=CC(=O)N1CCN(c2nc(OCC3CCCN3C)nc3c(F)c(-c4nc(N)cc(C)c4C(F)(F)F)c(Cl)cc23)C(C)C1 .
Result: inactive

Q: Then what about the molecule O=C(c1ccc(F)c(F)c1Nc1ccc(I)cc1F)N1CC(O)([C@@H]2CCCCN2)C1 + C#Cc1c(F)ccc2cc(O)cc(-c3ncc4c(N5CC6CCC(C5)N6)nc(OCC56CCCN5CC(F)C6)nc4c3F)c12 ?
Result: active

Q: Can you handle CC(=O)OC12COC1CC(O)C1(C)C(=O)C(O)C3=C(C)C(OC(=O)C(O)C(NC(=O)OC(C)(C)C)c4ccccc4)CC(O)(C(OC(=O)c4ccccc4)C21)C3(C)C (centres undefined) + C#Cc1c(F)ccc2cc(O)cc(-c3ncc4c(N5CC6CCC(C5)N6)nc(OCC56CCCN5CC(F)C6)nc4c3F)c12 next?
Result: inactive

Q: Another molecule to look at: CC(C)NCC(C(=O)N1CCN(c2ncnc3c2C(C)CC3O)CC1)c1ccc(Cl)cc1 (centres undefined) + C#Cc1c(F)ccc2cc(O)cc(-c3ncc4c(N5CC6CCC(C5)N6)nc(OCC56CCCN5CC(F)C6)nc4c3F)c12
Result: inactive

Q: And what about the molecule O=C(c1ccc(F)c(F)c1Nc1ccc(I)cc1F)N1CC(O)([C@@H]2CCCCN2)C1 + C=CC(=O)N1CCN(c2nc(OCC3CCCN3C)nc3c(F)c(-c4nc(N)cc(C)c4C(F)(F)F)c(Cl)cc23)C(C)C1 ?
Result: active

Q: Subsequent entry: CCN1CCN(Cc2ccc(Nc3ncc(F)c(-c4cc(F)c5nc(C)n(C(C)C)c5c4)n3)nc2)CC1 + C#Cc1c(F)ccc2cc(O)cc(-c3ncc4c(N5CC6CCC(C5)N6)nc(OCC56CCCN5CC(F)C6)nc4c3F)c12
Result: inactive
